Assay text: Isothermal equilibrium denaturation in guanidine HCl monitored by CD
Type: physicochemical
Particulars: GuHCl, 298K, CD signal at 227 nm
Attribute measured: m-value (kJ/mol M)
The answer is to be given in kJ/mol M; state only the numeric part.

Noted for SYM6/Δ104-106: SYM6 FGF-1 mutant plus Ala103→Gly/ΔGlu104/ΔLys105/ΔAsn106 (protein, UniProt P05230 16-155, looked up, variant A103G E104* K105* N106*, SYM6 background mutations, SYM6 FGF-1 mutant plus Ala103→Gly/ΔGlu104/ΔLys105/ΔAsn106) Fibroblast growth factor 1: FNLPPGNYKKPKLLYCSNGGHFLRILPDGTVDGTRDRSDQHIQLQLSAESVGEVYIKSTETGQYLAMDTDGLLYGSQTPNEECLFLERLEENHYNTYISKKHGWFVGLKKNGSCKRGPRTHYGQKAILFLPLPVSSD : its m-value reads 16.9
